Recorded values, source ChEMBL document CHEMBL1201861.

- System: BL-41;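 note: growth inhibition of human BL-41 cells, read out with a cell viability assay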
- ASSAY_NAME: cells
- Assay type: functional, cell-based, Homo sapiens
- TEST_PARAMETERS: Homo sapiens, BL-41
- Description: SANGER: Inhibition of human BL-41 cell growth in a cell viability assay.
IC50 listing for selected molecules.

Before answering, review these 2 worked examples.
MOLECULE | TEST_READOUT | VALUE
C#Cc1cccc(Nc2ncnc3cc(OCCOC)c(OCCOC)cc23)c1 [ERLOTINIB] | IC50 | > 2 µM
Cc1ccc(-c2c(C(=O)CCl)n(CCCO)c3ncnc(N)c23)cc1 | IC50 | > 4 µM

Moving on to another molecule below.
Given the entry COc1cc2ncn(-c3cc(OCc4ccccc4S(C)(=O)=O)c(C#N)s3)c2cc1OC [GSK-319347A] , report its measured IC50.
> 5 µM

====

IC50 listing for selected molecules.
- Test system: DU-4475
- ASSAY_NAME: cells
- Format: functional, cell-based, Homo sapiens
- TEST_PARAMETERS: Homo sapiens, DU-4475
- Description: SANGER: Inhibition of human DU-4475 cell growth in a cell viability assay.

MOLECULE | IC50
Cc1cn(-c2cc(NC(=O)c3ccc(C)c(Nc4nccc(-c5cccnc5)n4)c3)cc(C(F)(F)F)c2)cn1 [NILOTINIB] | > 2 µM
C=C(c1ccc(C(=O)O)cc1)c1cc2c(cc1C)C(C)(C)CCC2(C)C [BEXAROTENE] | > 8 µM

Given the entry N#Cc1c(O)c2c(-c3ccc(-c4ccccc4O)cc3)csc2[nH]c1=O , report its measured IC50.
> 1.02 µM

Now consider C#Cc1cccc(Nc2ncnc3cc(OCCOC)c(OCCOC)cc23)c1 [ERLOTINIB] and answer again.
> 2 µM

====

- System: MZ2-MEL
- ASSAY_NAME: cells
- Assay type: functional, cell-based, Homo sapiens
- TEST_PARAMETERS: Homo sapiens, MZ2-MEL
- Description: SANGER: Inhibition of human MZ2-MEL cell growth in a cell viability assay.
pIC50: −log10 of the molar value.
TEST_READOUT: pIC50

Before answering, review these 2 worked examples.
ITEM_SMILES | pIC50
C=C(c1ccc(C(=O)O)cc1)c1cc2c(cc1C)C(C)(C)CCC2(C)C | < 5.10
N#Cc1c(O)c2c(-c3ccc(-c4ccccc4O)cc3)csc2[nH]c1=O | < 5.99

Moving on to another molecule below.
Given the entry CC1(C)CNc2cc(NC(=O)c3cccnc3NCc3ccncc3)ccc21 , report its measured pIC50.
< 5.70

====

- System: LU-134-A
- ASSAY_NAME: cells
- Format: functional, cell-based, Homo sapiens
- TEST_PARAMETERS: Homo sapiens, LU-134-A
- Description: SANGER: Inhibition of human LU-134-A cell growth in a cell viability assay.
pIC50: −log10 of the molar value.
pIC50 listing for selected compounds.

COMPOUND | TARGET_SYSTEM | TEST_READOUT | VALUE
Cc1cn(-c2cc(NC(=O)c3ccc(C)c(Nc4nccc(-c5cccnc5)n4)c3)cc(C(F)(F)F)c2)cn1 | LU-134-A | pIC50 | < 5.70
Nc1cccc2c1CN(C1CCC(=O)NC1=O)C2=O (stereo not given) [LENALIDOMIDE] | LU-134-A | pIC50 | < 5.30
Cc1cc([N+](=O)[O-])ccc1NS(=O)(=O)c1cc(Cl)ccc1Cl | LU-134-A | pIC50 | < 4.49
COc1cc2c(Nc3ccc(NC(=O)c4ccccc4)cc3)ncnc2cc1OCCCN1CCOCC1 | LU-134-A | pIC50 | < 5.40

Moving on to another compound below.
So what pIC50 did CCN(CC)CCNC(=O)c1c(C)[nH]c(/C=C2\C(=O)Nc3ccc(F)cc32)c1C get with LU-134-A?
< 5.10

====

- System: TE-441-T
- ASSAY_NAME: cells
- Format: functional, cell-based, Homo sapiens
- TEST_PARAMETERS: Homo sapiens, TE-441-T
- Description: SANGER: Inhibition of human TE-441-T cell growth in a cell viability assay.
IC50 listing for selected compounds.

COMPOUND | TARGET_SYSTEM | TEST_READOUT | VALUE
O=C(O)c1ccc(-c2c[nH]c3ncc(-c4ccccc4)cc23)cc1C1CCCC1 [GSK-650394] | TE-441-T | IC50 | > 16 µM
CC[C@H](CO)Nc1nc(NCc2ccccc2)c2ncn(C(C)C)c2n1 [SELICICLIB] | TE-441-T | IC50 | > 16 µM
COc1cc(-c2nn([C@H]3CC[C@H](N4CCN(C(C)=O)CC4)CC3)c3ncnc(N)c23)ccc1NC(=O)c1cc2ccccc2n1C | TE-441-T | IC50 | > 5.12 µM

Given the entry C=C(c1ccc(C(=O)O)cc1)c1cc2c(cc1C)C(C)(C)CCC2(C)C [BEXAROTENE] , report its measured IC50.
> 8 µM

====

- Tested on: LS-123
- ASSAY_NAME: cells
- Type: functional, cell-based, Homo sapiens
- TEST_PARAMETERS: Homo sapiens, LS-123
- Description: SANGER: Inhibition of human LS-123 cell growth in a cell viability assay.
pIC50: −log10 of the molar value.
TEST_READOUT: pIC50

Before answering, review these 3 worked examples.
COMPOUND | pIC50
Nc1cccc2c1CN(C1CCC(=O)NC1=O)C2=O (stereo not given) [LENALIDOMIDE] | < 5.30
O=C(O)c1ccc(-c2c[nH]c3ncc(-c4ccccc4)cc23)cc1C1CCCC1 | < 4.80
COc1cc(N2CCN(C)CC2)ccc1Nc1ncc2c(n1)N(C)c1ccccc1C(=O)N2C | < 5.10

Given the entry COc1cc(-c2nn([C@H]3CC[C@H](N4CCN(C(C)=O)CC4)CC3)c3ncnc(N)c23)ccc1NC(=O)c1cc2ccccc2n1C , report its measured pIC50.
< 5.29

Now consider Cc1ccc(-c2c(C(=O)CCl)n(CCCO)c3ncnc(N)c23)cc1 and answer again.
< 5.40

====

- Test system: LB2241-RCC;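 note: cell viability assay measuring how strongly the cultured human renal carcinoma line is prevented from growing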
- ASSAY_NAME: cells
- Format: functional, cell-based, Homo sapiens
- TEST_PARAMETERS: Homo sapiens, LB2241-RCC
- Description: SANGER: Inhibition of human LB2241-RCC cell growth in a cell viability assay.
pIC50: −log10 of the molar value.
pIC50 listing for selected molecules.

MOLECULE | pIC50
Nc1cccc2c1CN(C1CCC(=O)NC1=O)C2=O (stereo not drawn) [LENALIDOMIDE] | < 5.30
CS(=O)(=O)c1ccc(C(=O)Nc2ccc(Cl)c(-c3ccccn3)c2)c(Cl)c1 | < 5.00

Given the entry C#Cc1cccc(Nc2ncnc3cc(OCCOC)c(OCCOC)cc23)c1 , report its measured pIC50.
< 5.70

====

pIC50 listing for selected compounds.
- System: KNS-42
- ASSAY_NAME: cells
- Type: functional, cell-based, Homo sapiens
- TEST_PARAMETERS: Homo sapiens, KNS-42
- Description: SANGER: Inhibition of human KNS-42 cell growth in a cell viability assay.
pIC50: −log10 of the molar value.

COMPOUND | TEST_READOUT | VALUE
CCN(CC)CCCCNc1ncc2cc(-c3cc(OC)cc(OC)c3)c(NC(=O)NC(C)(C)C)nc2n1 | pIC50 | < 5.70
COc1cc(N2CCN(C)CC2)ccc1Nc1ncc2c(n1)N(C)c1ccccc1C(=O)N2C | pIC50 | < 5.10
CC[C@H](CO)Nc1nc(NCc2ccccc2)c2ncn(C(C)C)c2n1 | pIC50 | < 4.80
Cc1ccc(-c2c(C(=O)CCl)n(CCCO)c3ncnc(N)c23)cc1 | pIC50 | < 5.40

Moving on to another compound below.
Given the entry CC(C)CCN1c2nc(Nc3cc(F)c(O)c(F)c3)ncc2N(C)C(=O)C1C (stereo not given) , report its measured pIC50.
< 5.30

====

- Tested on: HCC2157;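 note: growth inhibition of the cancer cell line, read out as cell viability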
- ASSAY_NAME: cells
- Format: functional, cell-based, Homo sapiens
- TEST_PARAMETERS: Homo sapiens, HCC2157
- Description: SANGER: Inhibition of human HCC2157 cell growth in a cell viability assay.
TEST_READOUT: IC50

COMPOUND | IC50
COc1cc2c(Nc3ccc(NC(=O)c4ccccc4)cc3)ncnc2cc1OCCCN1CCOCC1 | > 4 µM
CCC/C=C/C=C/C(=O)O[C@H]1/C(=C/C(=O)OC)C[C@H]2C[C@H]([C@@H](C)O)OC(=O)C[C@H](O)C[C@@H]3C[C@H](OC(C)=O)C(C)(C)[C@](O)(C[C@@H]4C/C(=C/C(=O)OC)C[C@H](/C=C/C(C)(C)[C@]1(O)O2)O4)O3 [BRYOSTATIN 1] | > 0.008 µM

Given the entry COc1cc(-c2nn([C@H]3CC[C@H](N4CCN(C(C)=O)CC4)CC3)c3ncnc(N)c23)ccc1NC(=O)c1cc2ccccc2n1C , report its measured IC50.
> 5.12 µM

====

- Tested on: C-33-A;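 note: cell viability assay measuring growth inhibition of C-33-A cells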
- ASSAY_NAME: cells
- Format: functional, cell-based, Homo sapiens
- TEST_PARAMETERS: Homo sapiens, C-33-A
- Description: SANGER: Inhibition of human C-33-A cell growth in a cell viability assay.
TEST_READOUT: IC50

Before answering, review these 2 worked examples.
MOLECULE | TARGET_SYSTEM | IC50
CS(=O)(=O)c1ccc(C(=O)Nc2ccc(Cl)c(-c3ccccn3)c2)c(Cl)c1 [VISMODEGIB] | C-33-A | > 10 µM
Nc1ccn([C@@H]2O[C@H](CO)[C@@H](O)C2(F)F)c(=O)n1 [GEMCITABINE] | C-33-A | < 0.004 µM

Given the entry COc1cc2c(Nc3ccc(NC(=O)c4ccccc4)cc3)ncnc2cc1OCCCN1CCOCC1 , report its measured IC50.
> 4 µM
